# system under test: T1, Cynomolgus TCR(AEA41865/AEA41866)-zipper protein (cynomolgus monkey)
# T1 construct: also called cyTCR-zipper protein; cynoTCR zipper
# T1 TCR alpha: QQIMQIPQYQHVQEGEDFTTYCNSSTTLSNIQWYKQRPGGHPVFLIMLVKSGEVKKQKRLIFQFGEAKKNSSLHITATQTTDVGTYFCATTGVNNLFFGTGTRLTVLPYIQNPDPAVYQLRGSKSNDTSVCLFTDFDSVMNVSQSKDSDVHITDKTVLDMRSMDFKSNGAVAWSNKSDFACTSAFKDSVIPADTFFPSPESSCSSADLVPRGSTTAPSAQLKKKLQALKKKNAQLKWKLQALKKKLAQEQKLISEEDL
# T1 TCR beta: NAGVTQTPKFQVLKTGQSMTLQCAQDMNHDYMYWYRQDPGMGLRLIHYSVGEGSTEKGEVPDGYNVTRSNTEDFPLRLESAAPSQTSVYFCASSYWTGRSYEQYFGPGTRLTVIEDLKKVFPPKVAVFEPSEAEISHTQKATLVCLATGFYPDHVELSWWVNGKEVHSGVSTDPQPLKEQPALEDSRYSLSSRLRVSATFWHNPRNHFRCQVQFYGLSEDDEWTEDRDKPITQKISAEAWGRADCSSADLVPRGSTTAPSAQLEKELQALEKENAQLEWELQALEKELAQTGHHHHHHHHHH
# assay notes: SPR ProteOn off-rate screen
Recorded koff by entry

binder	koff (s⁻¹)
T017000281 (VHH) VHH: EVQLVESGGGVVQPGGSLRLSCVASGDVHKINFLGWYRQAPGKEREKVAHISIGDQTDYADSAKGRFTISRDESKNMVYLQMNSLRPEDTALYFCRAMSRIYPYDYWGQGTLVTVSS	0.00555
T017000291 (VHH) VHH: EVQLVESGGGVVQPGGSLRLSCVASGDVHKINFLGWYRQAPGKEREKVAHISIGDQTDYADSAKGRFTISRDESKNMVYLQMNSLRPEDTALYFCRAFSRIWPYDYWGQGTLVTVSS	0.00672
T017000302 (VHH) VHH: EVQLVESGGGVVQPGGSLRLSCVASGDVHKINFLGWYRQAPGKEREKVAHISIGDQTDYADSAKGRFTISRDESKNMVYLQMNSLRPEDTALYFCRAFSRIYPYTYWGQGTLVTVSS	0.0148
